// provenance: patent US20260103465A1

Each item that follows carries a reported IC50.
- MEASURED TARGET: GSK3a (GST-full length GSK3a) (Homo sapiens)
- Construct: GST-full length GSK3a [SignalChem G08-10G]; purchased SignalChem G08-10G
- Sequence (P49840 whole entry): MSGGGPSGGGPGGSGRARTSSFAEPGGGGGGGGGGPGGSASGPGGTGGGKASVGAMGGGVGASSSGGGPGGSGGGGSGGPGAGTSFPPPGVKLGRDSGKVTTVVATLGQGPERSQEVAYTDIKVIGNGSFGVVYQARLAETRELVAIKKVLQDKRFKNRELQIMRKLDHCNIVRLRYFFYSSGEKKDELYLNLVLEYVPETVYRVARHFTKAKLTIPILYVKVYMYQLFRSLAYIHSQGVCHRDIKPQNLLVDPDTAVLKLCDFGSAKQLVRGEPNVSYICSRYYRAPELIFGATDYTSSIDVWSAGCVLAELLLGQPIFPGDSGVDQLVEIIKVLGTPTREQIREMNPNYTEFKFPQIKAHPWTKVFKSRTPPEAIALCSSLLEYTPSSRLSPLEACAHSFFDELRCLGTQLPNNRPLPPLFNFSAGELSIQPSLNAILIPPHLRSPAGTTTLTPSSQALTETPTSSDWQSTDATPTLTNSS
- PROTOCOL DETAILS: GSK3a TR-FRET kinase inhibition assay
- Format: biochemical
- CONDITION SUMMARY: 4 μM ATP; read-out: GSK3α TR-FRET 4 μM ATP GMean IC50

Q. Under GSK3a (GST-full length GSK3a) (Homo sapiens): IC50 value of CCC1(c2ccccc2)C2=C(CC(C)(C)NC2=O)Nc2ncc(F)cc21 (single isomer, unassigned) [Compound 1007B] ?
A. ≤ 0.1 µM

Q. Under GSK3a (GST-full length GSK3a) (Homo sapiens): IC50 value of CCC1(c2cccc(-c3cc(C)ncc3C)c2)C2=C(CC(C)(C)CC2=O)Nc2ncccc21 (single isomer, unassigned) [Compound 1027A] ?
A. > 5 µM

Q. Under GSK3a (GST-full length GSK3a) (Homo sapiens): IC50 value of CCC1(c2cccc(-c3ccnc4c3CCC4)c2)C2=C(CC(C)(C)CC2=O)Nc2ncccc21 (single isomer, unassigned) [Compound 1034A] ?
A. > 5 µM

----------
Each item that follows carries a reported IC50.
- MEASURED TARGET: GSK3b (GST-full length GSK3b) (Homo sapiens, UniProt P49841)
- Construct: GST-full length GSK3b: [SignalChem G08-9G]; purchased SignalChem G08-9G
- Sequence (P49841 whole entry): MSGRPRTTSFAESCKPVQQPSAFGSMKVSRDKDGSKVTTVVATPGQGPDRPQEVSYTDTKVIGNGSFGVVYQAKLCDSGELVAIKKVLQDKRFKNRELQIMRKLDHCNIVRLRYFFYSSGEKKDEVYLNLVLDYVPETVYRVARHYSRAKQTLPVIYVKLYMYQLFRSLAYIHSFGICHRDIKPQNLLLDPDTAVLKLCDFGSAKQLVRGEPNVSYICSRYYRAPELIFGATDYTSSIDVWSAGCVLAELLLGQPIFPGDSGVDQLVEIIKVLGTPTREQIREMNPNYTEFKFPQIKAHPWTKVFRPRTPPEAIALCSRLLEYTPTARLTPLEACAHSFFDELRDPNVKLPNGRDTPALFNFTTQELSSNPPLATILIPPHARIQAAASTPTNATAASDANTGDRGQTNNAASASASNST
- PROTOCOL DETAILS: GSK3b TR-FRET kinase inhibition assay
- Format: biochemical
- CONDITION SUMMARY: 1 mM ATP; Table 3; read-out: GSK3b TR-FRET 1 mM ATP Average IC50

| COMPOUND | QUANTITY MEASURED | OBSERVED VALUE |
| --- | --- | --- |
| CC1(C)CC(=O)C2=C(C1)Nc1nccc(F)c1C2(C)c1ccccc1 (single isomer, unassigned) [Compound 105B] | IC50 | 1000 to 5000 nM |
| CC(C)n1cncc1-c1cccc(C2(C)C3=C(CC(C)(C)CC3=O)Nc3ncc(C(F)(F)F)cc32)c1 (single isomer, unassigned) [Compound 171A] | IC50 | 1000 to 5000 nM |

Now, please, on to the next compound.
Q. Any idea what its IC50 is? The compound is CC1(C)CC(=O)C2=C(C1)Nc1nccc(CC(F)(F)F)c1C2(C)c1ccccc1 (single isomer, unassigned) [Compound 132B]
A. 1000 to 5000 nM

----------
- MEASURED TARGET: GSK3b (GST-full length GSK3b) (Homo sapiens, UniProt P49841)
- Construct: GST-full length GSK3b: [SignalChem G08-9G]; purchased SignalChem G08-9G
- PROTOCOL DETAILS: GSK3b TR-FRET kinase inhibition assay
- Type: biochemical
- CONDITION SUMMARY: 100 μM ATP; read-out: GSK3b 100 μM ATP Average IC50
QUANTITY MEASURED: IC50

// solved cases for IC50 follow
| COMPOUND | IC50 |
| --- | --- |
| Cc1ccnc2c1C(C)(c1ccccc1)C1=C(CC(C)(C)CC1=O)N2 (single isomer, unassigned) [Compound 104A] | 100 to 1000 nM |
| CC(C)(C)Cc1cnc2c(c1)C(C)(c1ccccc1)C1=C(CC(C)(C)CC1=O)N2 (single isomer, unassigned) [Compound 129A] | 20000 to 60000 nM |
| CCc1cnc2c(c1)C(C)(c1ccccc1)C1=C(CC(C)(C)CC1=O)N2 (single isomer, unassigned) [Compound 113A] | 100 to 1000 nM |
| CCc1ccnc2c1C(C)(c1ccccc1)C1=C(CC(C)(C)CC1=O)N2 (single isomer, unassigned) [Compound 112A] | ≤ 100 nM |
| CC1(C)CC(=O)C2=C(C1)Nc1ncc(C(C)(C)C)cc1C2(C)c1ccccc1 (single isomer, unassigned) [Compound 124A] | 5000 to 20000 nM |

Q. Under GSK3b (GST-full length GSK3b) (Homo sapiens, UniProt P49841): IC50 value of CCC1(c2ccccc2)C2=C(CC(C)(C)CC2=O)Nc2ncccc21 (single isomer, unassigned) [Compound 102A] ?
A. 100 to 1000 nM

Q. Under GSK3b (GST-full length GSK3b) (Homo sapiens, UniProt P49841): IC50 value of CC(C)(C)Cc1ccnc2c1C(C)(c1ccccc1)C1=C(CC(C)(C)CC1=O)N2 (single isomer, unassigned) [Compound 130B] ?
A. 100 to 1000 nM

----------
- MEASURED TARGET: GSK3b (GST-full length GSK3b) (Homo sapiens)
- Construct: GST-full length GSK3b: [SignalChem G08-9G]; purchased SignalChem G08-9G
- PROTOCOL DETAILS: GSK3b TR-FRET kinase inhibition assay
- Type: biochemical
- CONDITION SUMMARY: 2 μM ATP; read-out: GSK3β TR-FRET 2 μM ATP GMean IC50
pIC50: −log10 of the molar value.
QUANTITY MEASURED: pIC50

| COMPOUND | pIC50 |
| --- | --- |
| CCC1(c2cccc(-c3cc(C)nn3C)c2)C2=C(CC(C)(C)CC2=O)Nc2ncccc21 (single isomer, unassigned) [Compound 1024A] | < 5.30 |
| CCC1(c2cccc(-c3ccncc3)c2)C2=C(CC(C)(C)CC2=O)Nc2ncccc21 (single isomer, unassigned) [Compound 1017B] | < 5.30 |

Now, please, on to the next compound.
Q. Any idea what its pIC50 is? The compound is CCC1(c2cccc(-c3c(F)cncc3OC)c2)C2=C(CC(C)(C)CC2=O)Nc2ncccc21 (single isomer, unassigned) [Compound 154A]
A. < 5.30

----------
- MEASURED TARGET: GSK3b (GST-full length GSK3b) (Homo sapiens, UniProt P49841)
- Construct: GST-full length GSK3b: [SignalChem G08-9G]; purchased SignalChem G08-9G
- PROTOCOL DETAILS: GSK3b TR-FRET kinase inhibition assay
- Assay type: biochemical
- CONDITION SUMMARY: 2 μM ATP; read-out: GSK3β TR-FRET 2 μM ATP GMean IC50
QUANTITY MEASURED: IC50

| COMPOUND | IC50 |
| --- | --- |
| CCC1(c2cccc(-c3c(C)nn(C)c3C)c2)C2=C(CC(C)(C)CC2=O)Nc2ncccc21 (single isomer, unassigned) [Compound 150A] | > 5000 nM |
| CCC1(c2cccc(C(F)(F)F)c2)C2=C(CC(C)(C)CC2=O)Nc2ncccc21 (single isomer, unassigned) [Compound 1014B] | 100 to 1000 nM |

Q. Any idea what its IC50 is? The compound is CCC1(c2cccc(-c3ccncc3OC)c2)C2=C(CC(C)(C)CC2=O)Nc2ncccc21 (single isomer, unassigned) [Compound 1028B]
A. ≤ 100 nM

Q. Any idea what its IC50 is? The compound is CCC1(c2cccc(-c3ccncc3OC)c2)C2=C(CC(C)(C)CC2=O)Nc2ncc(F)cc21 (single isomer, unassigned) [Compound 1037A]
A. 1000 to 5000 nM

Q. Any idea what its IC50 is? The compound is CCC1(c2cccc(-c3cc(C)ncc3C)c2)C2=C(CC(C)(C)CC2=O)Nc2ncccc21 (single isomer, unassigned) [Compound 1027A]
A. > 5000 nM

Q. Any idea what its IC50 is? The compound is CCC1(c2cccc(-c3cccnc3)c2)C2=C(CC(C)(C)CC2=O)Nc2ncccc21 (single isomer, unassigned) [Compound 1015B]
A. > 5000 nM

Q. Any idea what its IC50 is? The compound is CCC1(c2cccc(-c3cnn(C)c3)c2)C2=C(CC(C)(C)CC2=O)Nc2ncccc21 (single isomer, unassigned) [Compound 1018A]
A. > 5000 nM

Q. Any idea what its IC50 is? The compound is CCC1(c2ccccc2)C2=C(CC3(CCC3)CC2=O)Nc2ncccc21 (single isomer, unassigned) [110 B]
A. > 5000 nM

----------
Each item that follows carries a reported IC50.
- MEASURED TARGET: GSK3b (GST-full length GSK3b) (Homo sapiens, UniProt P49841)
- Construct: GST-full length GSK3b: [SignalChem G08-9G]; purchased SignalChem G08-9G
- PROTOCOL DETAILS: GSK3b TR-FRET kinase inhibition assay
- Assay type: biochemical
- CONDITION SUMMARY: 1 mM ATP; Table 3; read-out: GSK3b TR-FRET 1 mM ATP Average IC50

// solved cases for IC50 follow
| COMPOUND | IC50 |
| --- | --- |
| CC1(C)CC(=O)C2=C(C1)Nc1ncc(C(F)(F)F)c(Cl)c1C2(C)c1ccccc1 (single isomer, unassigned) [Compound 141B] | 1000 to 5000 nM |
| CCC1(c2cccc(-c3c(F)cncc3OC)c2)C2=C(CC(C)(C)CC2=O)Nc2ncc(F)cc21 (single isomer, unassigned) [Compound 161B] | 1000 to 5000 nM |

Now, please, on to the next compound.
Q. Any idea what its IC50 is? The compound is CC1(C)CC(=O)C2=C(C1)Nc1ncc(F)c(C3CC3)c1C2(C)c1ccccc1 (single isomer, unassigned) [Compound 125B]
A. 1000 to 5000 nM
